Reference source: ChEMBL document CHEMBL5506051

- TESTED TARGET: Toll-like receptor 8 (Homo sapiens)
- Sequence (Q9NR97 whole entry): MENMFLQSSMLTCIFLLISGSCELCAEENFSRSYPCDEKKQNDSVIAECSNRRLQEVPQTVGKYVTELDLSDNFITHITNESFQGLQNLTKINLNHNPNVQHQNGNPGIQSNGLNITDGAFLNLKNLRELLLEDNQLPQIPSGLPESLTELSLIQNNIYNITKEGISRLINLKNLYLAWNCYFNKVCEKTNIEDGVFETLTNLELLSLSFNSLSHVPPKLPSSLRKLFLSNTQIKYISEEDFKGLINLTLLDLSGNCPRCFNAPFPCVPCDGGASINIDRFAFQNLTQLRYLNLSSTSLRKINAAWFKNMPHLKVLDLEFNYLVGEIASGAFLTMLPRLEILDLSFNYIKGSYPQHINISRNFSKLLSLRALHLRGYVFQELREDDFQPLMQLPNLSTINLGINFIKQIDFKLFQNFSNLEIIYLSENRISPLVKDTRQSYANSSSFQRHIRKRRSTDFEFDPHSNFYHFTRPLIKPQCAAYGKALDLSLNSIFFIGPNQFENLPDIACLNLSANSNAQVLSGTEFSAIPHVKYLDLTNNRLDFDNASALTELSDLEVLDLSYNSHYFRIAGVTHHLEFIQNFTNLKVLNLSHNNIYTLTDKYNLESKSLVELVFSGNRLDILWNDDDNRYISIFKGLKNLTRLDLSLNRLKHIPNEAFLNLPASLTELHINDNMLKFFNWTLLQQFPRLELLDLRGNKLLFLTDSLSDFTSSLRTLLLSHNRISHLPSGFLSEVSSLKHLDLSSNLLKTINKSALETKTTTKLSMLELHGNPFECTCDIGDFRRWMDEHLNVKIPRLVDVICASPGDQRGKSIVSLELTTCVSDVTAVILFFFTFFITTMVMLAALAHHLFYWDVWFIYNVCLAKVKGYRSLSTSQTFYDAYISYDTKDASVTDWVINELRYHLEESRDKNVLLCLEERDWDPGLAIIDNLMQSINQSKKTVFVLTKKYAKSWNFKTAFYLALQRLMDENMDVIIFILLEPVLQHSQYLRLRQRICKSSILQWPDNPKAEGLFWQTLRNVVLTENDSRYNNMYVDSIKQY
- TEST DETAILS: Agonist activity at human TLR8 in HEK-Blue hTLR8 cells assessed as increase in inducible SEAP level incubated for overnight by QUANTI-Blue reagent based assay
PROPERTY LABEL: EC50 (µM)
# value in µM; strip the unit string

[
  {
    "LINE NOTATION": "CCCCc1nc2c(N)nc3ccccc3c2n1Cc1ccc(C(=O)NCCO)cc1",
    "UNIT TAG": "µM",
    "EC50": 50.3
  },
  {
    "LINE NOTATION": "CCCCc1nc2c(N)nc3ccccc3c2n1Cc1ccc(C(=O)NCC(C)(C)O)cc1",
    "UNIT TAG": "µM",
    "EC50": 25.8
  },
  {
    "LINE NOTATION": "CCCCc1nc2c(N)nc3ccccc3c2n1Cc1ccc(O)cc1",
    "UNIT TAG": "µM",
    "EC50": 125
  },
  {
    "LINE NOTATION": "CCCCc1nc2c(N)nc3ccccc3c2n1Cc1ccc(C(N)=O)cc1",
    "UNIT TAG": "µM",
    "EC50": 18.2
  }
]

Would you kindly look at the next entry?
Task: Param item = CCCCc1nc2c(N)nc3ccccc3c2n1Cc1ccc(C(=O)NC)cc1 ; retrieve measured EC50.
Output: 31.8

---

- TESTED TARGET: Toll-like receptor 7 (Homo sapiens, UniProt Q9NYK1)
- Sequence (Q9NYK1 whole entry): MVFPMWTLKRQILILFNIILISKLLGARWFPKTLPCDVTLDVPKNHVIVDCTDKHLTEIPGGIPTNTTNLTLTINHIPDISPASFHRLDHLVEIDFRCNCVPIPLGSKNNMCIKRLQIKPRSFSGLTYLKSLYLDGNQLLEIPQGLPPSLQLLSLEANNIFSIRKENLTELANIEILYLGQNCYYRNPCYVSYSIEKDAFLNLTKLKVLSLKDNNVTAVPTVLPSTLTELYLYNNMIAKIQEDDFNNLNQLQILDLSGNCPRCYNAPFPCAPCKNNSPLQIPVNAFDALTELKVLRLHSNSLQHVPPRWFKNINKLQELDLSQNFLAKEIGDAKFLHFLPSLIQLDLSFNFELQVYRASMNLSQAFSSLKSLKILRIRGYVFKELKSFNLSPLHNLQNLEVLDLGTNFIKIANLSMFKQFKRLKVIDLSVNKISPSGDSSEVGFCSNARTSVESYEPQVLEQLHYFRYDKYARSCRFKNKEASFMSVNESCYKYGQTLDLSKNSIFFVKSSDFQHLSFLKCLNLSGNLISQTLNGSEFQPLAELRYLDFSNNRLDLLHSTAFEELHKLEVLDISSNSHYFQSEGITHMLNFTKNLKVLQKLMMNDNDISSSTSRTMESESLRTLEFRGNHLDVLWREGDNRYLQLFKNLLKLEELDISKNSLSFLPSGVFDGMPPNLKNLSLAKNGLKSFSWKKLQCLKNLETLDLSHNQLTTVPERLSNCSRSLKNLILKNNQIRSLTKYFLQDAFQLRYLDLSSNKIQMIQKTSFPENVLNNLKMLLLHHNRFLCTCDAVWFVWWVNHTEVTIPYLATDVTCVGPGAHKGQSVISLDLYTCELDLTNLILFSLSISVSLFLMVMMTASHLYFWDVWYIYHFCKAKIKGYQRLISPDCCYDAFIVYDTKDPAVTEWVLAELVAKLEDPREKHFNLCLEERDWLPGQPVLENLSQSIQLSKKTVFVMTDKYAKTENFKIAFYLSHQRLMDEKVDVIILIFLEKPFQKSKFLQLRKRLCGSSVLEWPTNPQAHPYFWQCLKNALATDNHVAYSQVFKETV
- TEST DETAILS: Agonist activity at human TLR7 in HEK-Blue hTLR7 cells assessed as increase in inducible SEAP level incubated for overnight by QUANTI-Blue reagent based assay
PROPERTY LABEL: EC50 (µM)
Record the value in µM, omitting the unit from your answer.

Answered examples (3):
[
  {
    "LINE NOTATION": "CCCCc1nc2c(N)nc3ccccc3c2n1Cc1ccccc1",
    "RECORDED VALUE": 0.85
  },
  {
    "LINE NOTATION": "CCCCc1nc2c(N)nc3ccccc3c2n1Cc1ccc(OC)cc1",
    "RECORDED VALUE": 1.83
  },
  {
    "LINE NOTATION": "CC(C)Cn1cnc2c(N)nc3ccccc3c21",
    "RECORDED VALUE": 8.29
  }
]

Task: I'd like to know its EC50. The compound in question is CCCCc1nc2c(N)nc3ccccc3c2n1Cc1ccc(C(=O)NC)cc1
Output: 0.2

Task: Find the recorded EC50 belonging to CCCCc1nc2c(N)nc3ccccc3c2n1Cc1ccc(C(=O)NCC(C)(C)O)cc1 and report it.
Output: 0.31

Task: Which EC50 value is on record for CCCCc1nc2c(N)nc3ccccc3c2n1Cc1ccc(C(N)=O)cc1 ?
Output: 0.32

Task: Endpoint output: EC50 of CCCCc1nc2c(N)nc3ccccc3c2n1Cc1ccc(C(=O)NN)cc1 . Value?
Output: 1.1
